- Test system: MDA-MB-435 melanoma
- assay.procedure: NCI-60 one-dose screen, 48 h
- particulars: 10 µM unless noted
Compounds without any hit were thinned out: in the full panel of roughly 83,000, 20% have a hit. Active and inactive are the calls of the source. The calls were made as follows: active = growth percent below 10; inactive = the rest.
Outcomes you can answer with include only these: active, inactive

# molecule, tested.on, group.label
data = [
    ("O=C1OCCC1Br (stereo not drawn)", "MDA-MB-435 melanoma", "inactive"),
    ("Cc1sc2c(c1C)C(c1ccc(Cl)cc1)=N[C@@H](CC(=O)OC(C)(C)C)c1nnc(C)n1-2", "MDA-MB-435 melanoma", "inactive"),
    ("O=C(CC1(O)C(=O)N(Cc2ccccc2)c2ccccc21)c1ccc(C(=O)NCC2CCC3(CC2)OOC2(CCCCC2)OO3)cc1 (stereo not drawn)", "MDA-MB-435 melanoma", "active"),
]

### Prompt Which outcome was assigned to `CC(=O)O[C@@H]1CC[C@]2(C)[C@H]3CC[C@]4(C)C(=O)CC[C@H]4[C@@H]3C[C@@H]3SC(N)=N[C@@]32C1` in this test?
### Response active

Sourced from PubChem BioAssay (NCI)
